- TARGET_SYSTEM: Human immunodeficiency virus type 1 integrase (Human immunodeficiency virus 1, UniProt Q7ZJM1)
- Sequence (Q7ZJM1 whole entry): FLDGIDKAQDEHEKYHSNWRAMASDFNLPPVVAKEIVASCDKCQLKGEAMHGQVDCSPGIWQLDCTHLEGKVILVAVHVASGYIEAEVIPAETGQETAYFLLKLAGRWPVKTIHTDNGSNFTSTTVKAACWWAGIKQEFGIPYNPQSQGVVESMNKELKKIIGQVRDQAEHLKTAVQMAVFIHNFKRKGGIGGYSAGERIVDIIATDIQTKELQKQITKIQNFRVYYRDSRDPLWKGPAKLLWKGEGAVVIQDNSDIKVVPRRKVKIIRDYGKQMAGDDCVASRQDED
- METHOD: Inhibition of HIV-1 integrase catalytic activity incubated for 1 hrs in absence of LEDGF/p75 by HTRF assay
MEASURED_ENDPOINT: log10 of IC50 (log10 of the value in nM)
Could you please treat all values as log10 of IC50 in nM?

>>> recorded_measurement("CCOC(=O)/C(O)=C/C(=O)c1ccc2[nH]cc(C(=O)/C=C(\\O)C(=O)OCC)c(=O)c2c1")
3.37
>>> recorded_measurement("CCOC(=O)c1cn(Cc2ccc(F)cc2)c2ccc(OCc3cccc4ccccc34)cc2c1=O")
4.62
>>> recorded_measurement("CCOC(=O)/C(O)=C/C(=O)c1cc2c(=O)c(C(=O)/C=C(\\O)C(=O)OCC)cn(Cc3ccc(F)cc3)c2cc1N1CCN(C)CC1")
2.89
>>> recorded_measurement("CCOC(=O)/C(O)=C/C(=O)c1ccc2c(c1)c(=O)c(C(=O)/C=C(\\O)C(=O)OCC)cn2Cc1ccc(F)cc1")
2.90
>>> recorded_measurement("CCOC(=O)/C(O)=C/C(=O)c1cc2c(=O)c(C(=O)/C=C(\\O)C(=O)OCC)cn(Cc3ccc(F)cc3)c2cc1N(C)C")
2.68
>>> recorded_measurement("CN(C)c1cc2c(cc1C(=O)/C=C(\\O)C(=O)O)c(=O)c(C(=O)/C=C(\\O)C(=O)O)cn2Cc1ccc(F)cc1")
2.26

Now take the following compound into account.
*Q* Recorded log10 of IC50 for O=C(O)c1cn(Cc2ccc(F)cc2)c2ccc(OCc3cccc4ccccc34)cc2c1=O , please?
*A* 4.56

Reference for the values: ChEMBL document CHEMBL5608250
